Below: a set of entries, each annotated with reported combination Emax.
tested on: CAL-33 (Oral Cavity Carcinoma); assay: combination Emax (second highest fraction inhibited in the dose matrix, 72 h); higher = more inhibition; extreme values may be limits of the assay

stdin: Item COc1cccc(OCCCN)c1-c1cc(Nc2cnc(C#N)cn2)n[nH]1 [Prexasertib] + C=CCn1c(=O)c2cnc(Nc3ccc(N4CCN(C)CC4)cc3)nc2n1-c1cccc(C(C)(C)O)n1 [AZD1775] (first compound max 1 µM, partner max 1 µM) has what recorded combination Emax?
stdout: 0.916

stdin: Requested read-out: combination Emax. Entry: CN(C)CCCOc1ccc(-c2ccc3ncc4c(c3c2)n(C2CCOCC2)c(=O)n4C)cn1 [AZD0156] + C=CCn1c(=O)c2cnc(Nc3ccc(N4CCN(C)CC4)cc3)nc2n1-c1cccc(C(C)(C)O)n1 [AZD1775] (first compound max 1 µM, partner max 1 µM)
stdout: 0.643

stdin: Suppose we examine the compound CC1(C)CCC(CN2CCN(c3ccc(C(=O)NS(=O)(=O)c4ccc(NCC5CCOCC5)c([N+](=O)[O-])c4)c(Oc4cnc5[nH]ccc5c4)c3)CC2)=C(c2ccc(Cl)cc2)C1 [Venetoclax] + C=CCn1c(=O)c2cnc(Nc3ccc(N4CCN(C)CC4)cc3)nc2n1-c1cccc(C(C)(C)O)n1 [AZD1775] (first compound max 1 µM, partner max 1 µM) ; what combination Emax value has been reported?
stdout: 0.761

stdin: Looking for the measured combination Emax of CC(=O)c1c(C)c2cnc(Nc3ccc(N4CCNCC4)cn3)nc2n(C2CCCC2)c1=O [Palbociclib] + Cc1c2c(nn1C)CSCc1cc(n(C)n1)CSc1cc(c3ccccc3c1)OCCCc1c(C(=O)O)n(C)c3c-2c(Cl)ccc13 [AZD5991] (first compound max 10 µM, 7x7, partner max 1 µM) , can you help?
stdout: 0.291

stdin: # lookup: combination Emax of COc1nnc2ccc(N3CCC(c4ccc(OCCN5CCN(C)C(=O)[C@H]5C)cc4)CC3)nn12 [AZD5153] + CCN(CCO)CCCOc1ccc2c(Nc3cc(CC(=O)Nc4cccc(F)c4)[nH]n3)ncnc2c1 [AZD2811] (first compound max 1 µM, 7x7, partner max 1 µM)
stdout: 0.609

stdin: What combination Emax value was documented for this compound, COc1cccc(OCCCN)c1-c1cc(Nc2cnc(C#N)cn2)n[nH]1 [Prexasertib] + O=C(c1cc(Cc2n[nH]c(=O)c3ccccc23)ccc1F)N1CCN(C(=O)C2CC2)CC1 [Olaparib] (first compound max 1 µM, 7x7, partner max 10 µM) ?
stdout: 0.833

stdin: combination Emax for COc1cccc(OCCCN)c1-c1cc(Nc2cnc(C#N)cn2)n[nH]1 [Prexasertib] + Cc1cc2ncnn2cc1Nc1ncc2c(n1)n(C1CCOCC1)c(=O)n2C [AZD7648] (first compound max 1 µM, 7x7, partner max 10 µM) ?
stdout: 0.816

====

Recorded combination Emax, one value per entry.
test system: LS-123 (Colorectal Carcinoma); experiment: combination Emax (second highest fraction inhibited in the dose matrix, 72 h); higher = more inhibition; extreme values may be limits of the assay
Give only the figure.

molecule	combination Emax
CC1(C)CCC(CN2CCN(c3ccc(C(=O)NS(=O)(=O)c4ccc(NCC5CCOCC5)c([N+](=O)[O-])c4)c(Oc4cnc5[nH]ccc5c4)c3)CC2)=C(c2ccc(Cl)cc2)C1 [Venetoclax] + CCN(CCO)CCCOc1ccc2c(Nc3cc(CC(=O)Nc4cccc(F)c4)[nH]n3)ncnc2c1 [AZD2811] (first compound max 1 µM, 7x7, partner max 1 µM)	0.162

Next item in the queue.
stdin: What combination Emax value was documented for this molecule, COc1cccc2c1C(=O)c1c(O)c3c(c(O)c1C2=O)C[C@@](O)(C(=O)CO)C[C@@H]3O[C@H]1C[C@H](N)[C@H](O)[C@H](C)O1 [Doxorubicin] + Cc1cc2ncnn2cc1Nc1ncc2c(n1)n(C1CCOCC1)c(=O)n2C [AZD7648] (first compound max 1 µM, 7x7, partner max 10 µM) ?
stdout: 0.87
